target: papain (Carica papaya); experiment: Thiol protease inhibitory activity against papain (P-3125, Sigma); assay type: biochemical; conditions: Table 3; read-out: IC50 (μM) papain
Sequence (P00784 134-345): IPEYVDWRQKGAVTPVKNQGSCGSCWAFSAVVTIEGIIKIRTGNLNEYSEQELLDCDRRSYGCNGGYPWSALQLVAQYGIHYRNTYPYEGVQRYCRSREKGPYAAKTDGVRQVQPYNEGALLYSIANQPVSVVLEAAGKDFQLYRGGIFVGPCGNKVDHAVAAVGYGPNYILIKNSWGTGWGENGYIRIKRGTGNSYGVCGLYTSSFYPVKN
API: label(entry) gives y if the entry's IC50 is strictly smaller than 0.08 µM; on equality or larger values it gives n.

Check out these entries, answers already filled in.
[[record]]
molecule = "CC(C)C[C@H](NC(=O)OCC1CCCCC1)C(=O)N[C@@H](C(C)C)C(O)c1cc1=O (stereo partly shown) [4 (No. 4)]"
assigned_category = "n"

[[record]]
molecule = "CCCC[C@H](NC(=O)[C@H](CC(C)C)NC(=O)OCC1CCCCC1)C(O)c1c(-c2ccc([Si](C)(C)C)o2)c1=O (stereo partly shown) [114 (No. 376)]"
assigned_category = "n"

[[record]]
molecule = "CCCC[C@H](NC(=O)[C@H](CC(C)C)NC(=O)OCC1CCCCC1)C(O)c1cc1=O (stereo partly shown) [6 (No. 15)]"
assigned_category = "y"

[[record]]
molecule = "CCCC[C@H](NC(=O)[C@H](CC(C)C)NC(=O)OCC1CCCCC1)C(O)c1c(-c2ccccc2)c1=O (stereo partly shown) [94 (No. 280)]"
assigned_category = "y"

[[record]]
molecule = "CCCC[C@H](NC(=O)[C@H](CC(C)C)NC(=O)OCC1CCCCC1)C(O)c1c(-c2ccc([Si](C)(C)C)s2)c1=O (stereo partly shown) [115 (No. 387)]"
assigned_category = "n"

[[record]]
molecule = "CCCC[C@H](NC(=O)[C@H](CC(C)C)NC(=O)OCc1ccccc1)C(O)c1c(-c2ccccc2)c1=O (stereo partly shown) [95 (No. 281)]"
assigned_category = "n"


Could you now consider this next molecule?
Q. Say whether its IC50 is strictly beneath 0.08 µM. Entry: CC(C)C[C@H](NC(=O)OCC1CCCCC1)C(=O)N[C@@H](C(C)C)[C@@H](O)c1c(-c2ccccc2)c1=O [1 (No. 77)]
A. y
